organism: Rattus norvegicus; assay: Open TG-GATES - Regimen: Daily Repeat; format: toxicity, organism-based, Sprague-Dawley; set-up: regimen Daily Repeat, gender Male, age 6 weeks; conditions: in vivo, po, 0 mg/kg, 72 h, tissue Plasma, route gavage, dose level Control, time 3 day
Reported gamma-GTP values follow for various compounds
Test Readout: gamma-GTP (IU/L)

compound=OCCN1CCN(CCCN2c3ccccc3Sc3ccc(C(F)(F)F)cc32)CC1 reported_measurement=0.5
compound="C[C@H]1O[C@H](O[C@H]2[C@H](O)[C@@H](O)[C@@H](O[C@H]3[C@H](O)[C@@H](O)C(O)O[C@@H]3CO)O[C@@H]2CO)[C@H](O)[C@@H](O)[C@@H]1N[C@H]1C=C(CO)[C@@H](O)[C@H](O)[C@H]1O (some centres undefined)" reported_measurement=1
compound=Cn1cc[nH]c1=S reported_measurement=1.2
compound=C=C(C)[C@H]1Cc2c(ccc3c2O[C@@H]2COc4cc(OC)c(OC)cc4[C@@H]2C3=O)O1 reported_measurement=0.4

====

Reported Fbg values follow for various compounds
species: Rattus norvegicus; assay: Open TG-GATES - Regimen: Single; assay type: toxicity, organism-based, Sprague-Dawley; parameters: regimen Single, gender Male, age 6 weeks; conditions: in vivo, po, 0 mg/kg, 9 h, tissue Blood, route gavage, dose level Control
Test Readout: Fbg (mg/dL)

compound=C=C(C)[C@H]1Cc2c(ccc3c2O[C@@H]2COc4cc(OC)c(OC)cc4[C@@H]2C3=O)O1 test_readout=Fbg reported_measurement=209
compound="CCOC(=O)C(C)(C)Oc1ccc(Cl)cc1 [CLOFIBRATE]" test_readout=Fbg reported_measurement=234.4
compound="C[C@H]1O[C@H](O[C@H]2[C@H](O)[C@@H](O)[C@@H](O[C@H]3[C@H](O)[C@@H](O)C(O)O[C@@H]3CO)O[C@@H]2CO)[C@H](O)[C@@H](O)[C@@H]1N[C@H]1C=C(CO)[C@@H](O)[C@H](O)[C@H]1O (stereo partly drawn)" test_readout=Fbg reported_measurement=306.6

====

Reported KIDNEY_R values follow for various compounds
species: Rattus norvegicus; assay: Open TG-GATES - Regimen: Single; type: toxicity, organism-based, Sprague-Dawley; parameters: regimen Single, gender Male, age 6 weeks; details: in vivo, po, 0 mg/kg, 24 h, tissue Kidney, route gavage, dose level Control
Test Readout: KIDNEY_R (g)

compound="C[C@H]1O[C@H](O[C@H]2[C@H](O)[C@@H](O)[C@@H](O[C@H]3[C@H](O)[C@@H](O)C(O)O[C@@H]3CO)O[C@@H]2CO)[C@H](O)[C@@H](O)[C@@H]1N[C@H]1C=C(CO)[C@@H](O)[C@H](O)[C@H]1O (stereo partly specified)" test_readout=KIDNEY_R scale_unit=g reported_measurement=0.9
compound="Cc1cccc(C)c1OCC(C)N (stereo unspecified)" test_readout=KIDNEY_R scale_unit=g reported_measurement=1
compound="CCOC(=O)C(C)(C)Oc1ccc(Cl)cc1 [CLOFIBRATE]" test_readout=KIDNEY_R scale_unit=g reported_measurement=1
compound=C[C@H]1C(=O)O[C@@H]2CCN3CC=C(COC(=O)[C@](C)(O)[C@]1(C)O)[C@H]23 test_readout=KIDNEY_R scale_unit=g reported_measurement=1
compound=Cc1ccc2cc3c(ccc4ccccc43)c3c2c1CC3 test_readout=KIDNEY_R scale_unit=g reported_measurement=1
compound=OCCN1CCN(CCCN2c3ccccc3Sc3ccc(C(F)(F)F)cc32)CC1 test_readout=KIDNEY_R scale_unit=g reported_measurement=1

====

organism: Rattus norvegicus; test: Open TG-GATES - Regimen: Daily Repeat; type: toxicity, organism-based, Sprague-Dawley; parameters: regimen Daily Repeat, gender Male, age 6 weeks; details: in vivo, po, 0 mg/kg, […], tissue Plasma, route gavage, dose level Control, time 14 day
Test Readout: Na

molecule=C=C(C)[C@H]1Cc2c(ccc3c2O[C@@H]2COc4cc(OC)c(OC)cc4[C@@H]2C3=O)O1 reported_measurement="139.6 meq/L"
molecule=Cn1cc[nH]c1=S reported_measurement="142.2 meq/L"
molecule="C[C@H]1O[C@H](O[C@H]2[C@H](O)[C@@H](O)[C@@H](O[C@H]3[C@H](O)[C@@H](O)C(O)O[C@@H]3CO)O[C@@H]2CO)[C@H](O)[C@@H](O)[C@@H]1N[C@H]1C=C(CO)[C@@H](O)[C@H](O)[C@H]1O (some centres undefined)" reported_measurement="142 meq/L"
molecule=O=[N+]([O-])c1ccc(O)c([N+](=O)[O-])c1 reported_measurement="136.8 meq/L"

====

organism: Rattus norvegicus; assay: Open TG-GATES - Regimen: Single; assay type: toxicity, organism-based, Sprague-Dawley; design: regimen Single, gender Male, age 6 weeks; details: in vivo, po, 0 mg/kg, 9 h, tissue Kidney, route gavage, dose level Control
Test Readout: KIDNEY_L (g)

compound="C[C@H]1O[C@H](O[C@H]2[C@H](O)[C@@H](O)[C@@H](O[C@H]3[C@H](O)[C@@H](O)C(O)O[C@@H]3CO)O[C@@H]2CO)[C@H](O)[C@@H](O)[C@@H]1N[C@H]1C=C(CO)[C@@H](O)[C@H](O)[C@H]1O (stereo partly specified)" reported_measurement=0.9
compound="Cc1cccc(C)c1OCC(C)N (stereo unspecified)" reported_measurement=0.9
compound=C[C@H]1C(=O)O[C@@H]2CCN3CC=C(COC(=O)[C@](C)(O)[C@]1(C)O)[C@H]23 reported_measurement=0.9
compound="CCOC(=O)C(C)(C)Oc1ccc(Cl)cc1 [CLOFIBRATE]" reported_measurement=0.9
compound=OCCN1CCN(CCCN2c3ccccc3Sc3ccc(C(F)(F)F)cc32)CC1 reported_measurement=0.9
compound=Cc1ccc2cc3c(ccc4ccccc43)c3c2c1CC3 reported_measurement=1

====

Reported PL values follow for various compounds
species on record: Rattus norvegicus; assay: Open TG-GATES - Regimen: Single; format: toxicity, organism-based, Sprague-Dawley; set-up: regimen Single, gender Male, age 6 weeks; conditions: in vivo, po, 0 mg/kg, 24 h, tissue Plasma, route gavage, dose level Control
Test Readout: PL

compound="CCOC(=O)C(C)(C)Oc1ccc(Cl)cc1 [CLOFIBRATE]" reported_measurement="147.8 mg/dL"
compound=C[C@H]1C(=O)O[C@@H]2CCN3CC=C(COC(=O)[C@](C)(O)[C@]1(C)O)[C@H]23 reported_measurement="150.4 mg/dL"
compound="C[C@H]1O[C@H](O[C@H]2[C@H](O)[C@@H](O)[C@@H](O[C@H]3[C@H](O)[C@@H](O)C(O)O[C@@H]3CO)O[C@@H]2CO)[C@H](O)[C@@H](O)[C@@H]1N[C@H]1C=C(CO)[C@@H](O)[C@H](O)[C@H]1O (some centres undefined)" reported_measurement="139.8 mg/dL"
compound=OCCN1CCN(CCCN2c3ccccc3Sc3ccc(C(F)(F)F)cc32)CC1 reported_measurement="160.8 mg/dL"
compound=C=C(C)[C@H]1Cc2c(ccc3c2O[C@@H]2COc4cc(OC)c(OC)cc4[C@@H]2C3=O)O1 reported_measurement="148.4 mg/dL"
compound=Cn1cc[nH]c1=S reported_measurement="156.6 mg/dL"
compound=Cc1ccc2cc3c(ccc4ccccc43)c3c2c1CC3 reported_measurement="160.8 mg/dL"
compound=O=[N+]([O-])c1ccc(O)c([N+](=O)[O-])c1 reported_measurement="160.4 mg/dL"
compound="Cc1cccc(C)c1OCC(C)N (centres undefined)" reported_measurement="130.6 mg/dL"

====

Reported GLC values follow for various molecules
species: Rattus norvegicus; assay: Open TG-GATES - Regimen: Single; type: toxicity, organism-based, Sprague-Dawley; parameters: regimen Single, gender Male, age 6 weeks; conditions: in vivo, po, 0 mg/kg, 9 h, tissue Plasma, route gavage, dose level Control
Test Readout: GLC (mg/dL)

molecule="C[C@H]1C(=O)O[C@@H]2CCN3CC=C(COC(=O)[C@](C)(O)[C@]1(C)O)[C@H]23 [MONOCROTALINE]" test_readout=GLC reported_measurement=174.2
molecule="CCOC(=O)C(C)(C)Oc1ccc(Cl)cc1 [CLOFIBRATE]" test_readout=GLC reported_measurement=204.6
molecule="Cn1cc[nH]c1=S [METHIMAZOLE]" test_readout=GLC reported_measurement=184.2
molecule="Cc1cccc(C)c1OCC(C)N (centres undefined) [MEXILETINE]" test_readout=GLC reported_measurement=188.8
molecule="OCCN1CCN(CCCN2c3ccccc3Sc3ccc(C(F)(F)F)cc32)CC1 [FLUPHENAZINE]" test_readout=GLC reported_measurement=186.4
molecule="Cc1ccc2cc3c(ccc4ccccc43)c3c2c1CC3 [3-METHYLCHOLANTHRENE]" test_readout=GLC reported_measurement=176.6
molecule="O=[N+]([O-])c1ccc(O)c([N+](=O)[O-])c1 [2,4-DINITROPHENOL]" test_readout=GLC reported_measurement=195.2
molecule="C[C@H]1O[C@H](O[C@H]2[C@H](O)[C@@H](O)[C@@H](O[C@H]3[C@H](O)[C@@H](O)C(O)O[C@@H]3CO)O[C@@H]2CO)[C@H](O)[C@@H](O)[C@@H]1N[C@H]1C=C(CO)[C@@H](O)[C@H](O)[C@H]1O (some centres undefined) [ACARBOSE]" test_readout=GLC reported_measurement=177.8
molecule="C=C(C)[C@H]1Cc2c(ccc3c2O[C@@H]2COc4cc(OC)c(OC)cc4[C@@H]2C3=O)O1 [ROTENONE]" test_readout=GLC reported_measurement=182.2
